study_system: Fab^S (Herceptin Fab scaffold variant with Lc E123S; Lc aa 123-127 SQLKS)
experiment_notes: SPR (preliminary results), Protein G variant against Fab scaffold
pKd: −log10 of the molar value.
Items are presented alongside their recorded pKd.
measured_metric: pKd

- Protein GA1 (designed binder, also called pGA1; PGA1) TPAVTTYKLVINGRTLSGYTTTTAVDAATAEKVFKQYAYVHEVDGEWTYDDATKTFTVTEKPEKL: 7.00
- Protein G F (designed binder, also called pGF; F 38YAFGNG43) TPAVTTYKLVINGRTLSGYTTTTAVDAATAEKVFKQYAFGNGVDGEWTYDDATKTFTVTEKPEKL: 7.22
- Protein G D (designed binder, also called pGD; D 38IDMVSS43) TPAVTTYKLVINGRTLSGYTTTTAVDAATAEKVFKQIDMVSSVDGEWTYDDATKTFTVTEKPEKL: 7.10
